target: Protein farnesyltransferase (Homo sapiens, UniProt P49354+P49356); test: Inhibition of ras Farnesyltransferase; type: protein-complex assay
pIC50: −log10 of the molar value.
reportedEndpoint: pIC50

Example results:
molecule	pIC50
CC(C)=CCC/C(C)=C/CC/C(C)=C/CC(CCCCC(=O)N[C@H](C(=O)N[C@@H](CC(C)C)C(=O)N[C@@H](CO)C(=O)O)C(C)C)C(=O)O (some centres undefined)	5.74
CC(C)=CCC/C(C)=C/CC/C(C)=C/CC(CC(=O)N[C@H](C(=O)N[C@@H](CC(C)C)C(=O)N[C@@H](CO)C(=O)O)C(C)C)C(=O)O (some centres undefined)	5.35
CC(C)=CCC/C(C)=C/CC/C(C)=C/CN[C@H](CCC(=O)N[C@H](C(=O)N[C@@H](CC(C)C)C(=O)N[C@@H](CO)C(=O)O)C(C)C)C(=O)O	4.85

I = CC(C)=CCC/C(C)=C/CC/C(C)=C/CC(C[C@H](NC(=O)OC(C)(C)C)C(=O)N[C@H](C(=O)N[C@@H](CC(C)C)C(=O)N[C@@H](CO)C(=O)O)C(C)C)C(=O)O (some centres undefined)
II = CC(C)=CCC/C(C)=C/CC/C(C)=C/C(=O)N[C@@H](CCC(=O)N[C@H](C(=O)N[C@@H](CC(C)C)C(=O)N[C@@H](CO)C(=O)O)C(C)C)C(=O)O (stereo in doubt; 28 (L))
## Input Which of the two items, I and II , has the greater recorded pIC50? Your answer should be the label attached to the chosen record.
## Output II

I = CC(C)=CCC/C(C)=C/CC/C(C)=C/CNC(=O)C(CCC(=O)N[C@H](C(=O)N[C@@H](CC(C)C)C(=O)N[C@@H](CO)C(=O)O)C(C)C)C(=O)O (some centres undefined)
II = CC(C)=CCC/C(C)=C/CC/C(C)=C/CC(CCC(=O)N[C@H](C(=O)N[C@@H](CC(C)C)C(=O)N[C@@H](CO)C(=O)O)C(C)C)C(=O)NCP(=O)(O)O (some centres undefined)
III = CCCCCCCCCCCCC(CCC(=O)N[C@H](C(=O)N[C@@H](CC(C)C)C(=O)N[C@@H](CO)C(=O)O)C(C)C)C(=O)O (some centres undefined)
## Input Ranking field: pIC50; order: falling. State the ranking by listing the labels in the requested order.
## Output II, I, III
(II: 6.82, I: 5.36, III: 5.00)
